The measurements presented in this section are drawn from patent US9751885B2.

Protocol summary: Evaluation of hippocampal distribution in mouse
Assay type: in vivo
Details: hippocampus/plasma, male ICR mice, 10 mg/kg oral, 1.5 hr after administration, read-out: hippocampus/plasma concentration ratio (mean)
Counter-ions that a name gives are not always drawn.
Parameter measured: Kp at 1.5 h
Answer with the value's number alone.

Item Cc1nnc(NC(=O)c2cc([C@@H]3C[C@H]3NC3CCC3)ccc2F)s1 (relative stereo) [Example 183, dihydrochloride] has what recorded Kp at 1.5 h?
1.35

====

Assay system: human LSD1(172-833) (Homo sapiens (Human), UniProt O60341)
Counter-ions that a name gives are not always drawn.
Catalogue of compounds with associated IC50

> print(dat)
                                   compound  parameter.measured    result
1  O=C(NCc1cccc(Oc2ccccc2)c1)c1ccc([C@@H]2C[C@H]2NCC2CC2)cc1 (relative stereo) [Example 21, trifluoroacetate]                IC50  < 100 nM
2  COc1ccc(CN[C@@H]2C[C@H]2c2ccc(C(=O)NCc3ccccc3)cc2)cc1 (relative stereo) [Example 35, trifluoroacetate]                IC50  < 100 nM

# ---- query compound ----
Item O=C(NCc1ccc(N2CCCC2=O)cc1)c1ccc([C@@H]2C[C@H]2NCC2CC2)cc1 (relative stereo) [Example 27, trifluoroacetate] has what recorded IC50?
< 100 nM
